These measurements were taken from patent US20240082223A1.

So I've got a bunch of compounds here, and I need their Ki values.
molecular target: ROCK1 (Homo sapiens); experiment: In vitro inhibitory activity assay ROCK1 (Method B, ADP-Glo, 200 μM ATP); format: biochemical; conditions: ATP 200 μM, read-out: Method B ROCK 1 (Ki)
Sequence (Q13464 whole entry): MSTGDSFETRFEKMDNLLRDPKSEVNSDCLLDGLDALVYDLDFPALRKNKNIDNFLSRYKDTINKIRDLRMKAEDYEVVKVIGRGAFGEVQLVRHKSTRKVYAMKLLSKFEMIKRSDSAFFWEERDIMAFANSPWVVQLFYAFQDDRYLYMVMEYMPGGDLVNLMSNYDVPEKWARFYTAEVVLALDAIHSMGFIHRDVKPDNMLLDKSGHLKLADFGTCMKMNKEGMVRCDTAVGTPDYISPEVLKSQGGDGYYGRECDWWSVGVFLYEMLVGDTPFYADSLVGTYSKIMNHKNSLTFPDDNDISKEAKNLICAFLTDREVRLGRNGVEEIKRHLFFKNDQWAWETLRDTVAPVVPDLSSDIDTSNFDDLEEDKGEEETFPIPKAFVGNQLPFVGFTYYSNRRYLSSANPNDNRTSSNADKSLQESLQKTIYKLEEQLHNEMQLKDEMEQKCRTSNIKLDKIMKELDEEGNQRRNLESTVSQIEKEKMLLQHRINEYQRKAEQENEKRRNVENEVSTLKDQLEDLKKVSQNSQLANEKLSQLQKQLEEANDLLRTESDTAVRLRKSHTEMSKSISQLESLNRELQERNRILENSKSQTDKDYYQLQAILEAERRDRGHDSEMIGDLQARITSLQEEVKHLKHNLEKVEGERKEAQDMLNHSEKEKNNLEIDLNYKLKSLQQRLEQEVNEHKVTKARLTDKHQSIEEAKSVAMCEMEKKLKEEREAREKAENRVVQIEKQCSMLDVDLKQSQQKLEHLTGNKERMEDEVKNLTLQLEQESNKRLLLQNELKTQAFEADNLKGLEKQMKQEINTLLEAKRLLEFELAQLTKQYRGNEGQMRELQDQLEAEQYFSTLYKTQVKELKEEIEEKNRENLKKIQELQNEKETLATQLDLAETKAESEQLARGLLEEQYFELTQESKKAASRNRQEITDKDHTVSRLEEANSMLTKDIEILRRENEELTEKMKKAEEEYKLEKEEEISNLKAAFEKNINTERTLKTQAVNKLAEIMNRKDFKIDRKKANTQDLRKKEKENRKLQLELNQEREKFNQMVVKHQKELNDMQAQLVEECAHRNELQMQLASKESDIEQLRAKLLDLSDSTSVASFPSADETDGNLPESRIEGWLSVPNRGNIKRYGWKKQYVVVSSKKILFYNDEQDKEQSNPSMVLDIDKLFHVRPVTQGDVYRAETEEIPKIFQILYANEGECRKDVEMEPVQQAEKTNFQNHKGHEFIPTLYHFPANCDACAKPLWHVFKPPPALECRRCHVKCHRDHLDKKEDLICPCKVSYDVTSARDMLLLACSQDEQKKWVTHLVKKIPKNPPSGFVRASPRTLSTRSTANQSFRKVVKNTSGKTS

Request: Recorded Ki for O=C(NCC1CCCCO1)c1cccc(CNc2ncc(-c3cn[nH]c3)c3c2CCO3)c1 (single isomer, unassigned; enantiomer 1) [Example 55] , please?
Result: ≤ 3 nM

Request: Need Ki, item O=C(NCC1CCCCO1)c1cccc(CNc2ncc(-c3cn[nH]c3)c3c2CCO3)c1 (single isomer, unassigned; enantiomer 2) [Example 56]
Result: ≤ 3 nM

Request: Look up Ki for this compound: O=C(NCC1CCCCO1)c1cccc(CNc2ncc(-c3cn[nH]c3)c3c2CCO3)c1 (racemic) [Example 11]
Result: ≤ 3 nM

For every record below, what is its Ki?
1. CN1CCC(n2ncc3cc(C(=O)Nc4cccc(CNc5ncc(-c6cn[nH]c6)c6c5CCO6)c4)ccc32)CC1
2. Cn1cnc(CNC(=O)c2cccc(CNc3ncc(-c4cn[nH]c4)c4c3CCO4)c2)c1
3. O=C(NCCC1CCN(C2COC2)CC1)c1cccc(CNc2ncc(-c3cn[nH]c3)c3c2CCO3)c1

Result:
["≤ 3 nM", "3 to 30 nM", "≤ 3 nM"]
